SYSTEM: MEK1 (Homo sapiens, UniProt Q02750)
Construct: purchased Thermo Fisher Scientific Inc. (MEK1, CRAF); Carna Biosciences, Inc. (ERK2)
Sequence (Q02750 whole entry): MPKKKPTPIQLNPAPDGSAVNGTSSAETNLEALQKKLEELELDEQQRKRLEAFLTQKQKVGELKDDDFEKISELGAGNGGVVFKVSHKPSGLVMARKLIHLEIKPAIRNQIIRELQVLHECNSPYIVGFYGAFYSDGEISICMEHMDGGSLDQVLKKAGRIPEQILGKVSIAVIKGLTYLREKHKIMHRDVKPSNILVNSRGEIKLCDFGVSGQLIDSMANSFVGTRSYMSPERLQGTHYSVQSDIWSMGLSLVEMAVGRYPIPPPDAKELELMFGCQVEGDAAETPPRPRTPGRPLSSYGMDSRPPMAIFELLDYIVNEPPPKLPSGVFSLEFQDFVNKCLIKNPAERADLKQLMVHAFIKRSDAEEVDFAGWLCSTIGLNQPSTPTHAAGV
METHOD SUMMARY: MEK1-inhibiting activity, fluorescent polarization method (CRAF/MEK1/ERK2 cascade, IMAP)
Format: biochemical
ASSAY CONTEXT: Table 3; read-out: MEK1 IC50
Entries get a class label from measured IC50. See ranges: bucket A: < 20 nM; bucket B: ≥ 20 nM and < 100 nM; bucket C: ≥ 100 nM

>>> category("CC(C)(C)ONC(=O)c1cc(Cc2cccc(NS(=O)(=O)C3(C)CC3)c2F)c(F)c(F)c1Nc1ccc(I)cc1F [Compound E-6]")
"bucket B"
>>> category("CNS(=O)(=O)Nc1nccc(Cn2cc(C(=O)NOC)c(Nc3ccc(I)cc3F)c(C)c2=O)c1F [Compound P-7]")
"bucket A"
>>> category("CNS(=O)(=O)Nc1nccc(Cn2cc(C(N)=O)c(Nc3ccc(I)cc3F)c(C)c2=O)c1F [Compound P-1]")
"bucket A"
>>> category("CNS(=O)(=O)Nc1cccc(Cc2cc(C(=O)NC3CC3)c(Nc3ccc(I)cc3F)c(F)c2F)c1F [Compound D-6]")
"bucket B"
>>> category("Cn1c(Nc2ccc(I)cc2F)c(C(N)=O)cc(Cc2cccc(NS(=O)(=O)C3(C)CC3)c2F)c1=O [Compound K-6]")
"bucket C"
>>> category("NC(=O)c1cc(Cc2cccc(NS(=O)(=O)C3CC3)c2F)c(F)c(F)c1Nc1ccc(I)cc1F [Compound E-22]")
"bucket C"
>>> category("CONC(=O)c1cc(Cc2ccnc(NS(C)(=O)=O)c2F)c(F)c(F)c1Nc1ccc(I)cc1F [Compound B-15]")
"bucket A"
>>> category("CNS(=O)(=O)Nc1cccc(Cc2cc(C(N)=O)c(Nc3ccc(C4CC4)cc3F)c(F)c2F)c1F [Compound D-14]")
"bucket C"
>>> category("CC(C)(C)NS(=O)(=O)Nc1nccc(Cc2cc(C(N)=O)c(Nc3ccc(I)cc3F)c(F)c2F)c1F [Compound A-37]")
"bucket B"
>>> category("Cn1c(Nc2ccc(I)cc2F)c(C(=O)NC2CC2)cc(Cc2cccc(NS(=O)(=O)NC3CC3)c2F)c1=O [Compound K-5]")
"bucket C"
>>> category("CC1(S(=O)(=O)Nc2cccc(Cc3cc(C(N)=O)c(Nc4ccc(I)cc4F)c(F)c3F)c2F)CC1 [Compound E-16]")
"bucket C"
>>> category("CNS(=O)(=O)Nc1cccc(Cc2cc(C(N)=O)c(Nc3ccc(I)cc3F)n(C)c2=O)c1F [Compound K-1]")
"bucket B"
>>> category("NC(=O)c1cc(Cc2ccnc(NS(N)(=O)=O)c2F)c(F)c(F)c1Nc1ccc(I)cc1F [Compound B-10]")
"bucket B"
>>> category("CNS(=O)(=O)Nc1nccc(Cc2cc(C(=O)NOC)c(Nc3ccc(I)cc3F)n(C)c2=O)c1F [Compound J-8]")
"bucket A"
>>> category("CNS(=O)(=O)Nc1nccc(Cc2cc(C(N)=O)c(Nc3ccc(I)cc3F)n(C)c2=O)c1F [Compound J-1]")
"bucket B"

----------
IC50 for assorted compounds
SYSTEM: BRAF (Homo sapiens, UniProt P15056)
Construct: purchased Eurofins Genomics KK; (BRAF); Thermo Fisher Scientific Inc. (MEK1)
Sequence (P15056 417-766 limits assumed): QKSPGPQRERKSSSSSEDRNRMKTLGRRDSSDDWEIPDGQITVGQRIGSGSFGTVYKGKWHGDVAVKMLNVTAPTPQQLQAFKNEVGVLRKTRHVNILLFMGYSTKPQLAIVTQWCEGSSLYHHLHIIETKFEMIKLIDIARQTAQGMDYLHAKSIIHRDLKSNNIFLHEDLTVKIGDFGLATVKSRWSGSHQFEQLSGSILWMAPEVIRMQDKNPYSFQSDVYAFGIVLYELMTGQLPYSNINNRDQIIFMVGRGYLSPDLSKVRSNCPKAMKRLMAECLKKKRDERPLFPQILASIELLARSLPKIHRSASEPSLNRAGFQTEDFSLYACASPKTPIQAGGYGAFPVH
METHOD SUMMARY: BRAF-inhibiting activity, time-resolved fluorescence-fluorescence resonance energy transfer assay
Type: biochemical
ASSAY CONTEXT: read-out: BRAF IC50; Table 3
TEST READOUT: IC50 (nM)

>>> reported_result("CNS(=O)(=O)Nc1cccc(Cc2cc(C(N)=O)c(Nc3ccc(I)cc3F)n(C)c2=O)c1F")
3
>>> reported_result("CNS(=O)(=O)Nc1nccc(Cc2cc(C(=O)NOCCO)c(Nc3ccc(I)cc3F)c(F)c2F)c1F")
5
>>> reported_result("Cn1c(Nc2ccc(I)cc2F)c(C(=O)NOC(C)(C)C)cc(Cc2ccnc(NS(=O)(=O)NC3CC3)c2F)c1=O")
17
>>> reported_result("CONC(=O)c1cc(Cc2cccc(NS(=O)(=O)C3(C)CC3)c2F)c(=O)n(C)c1Nc1ccc(I)cc1F")
14
>>> reported_result("CCS(=O)(=O)Nc1cccc(Cc2cc(C(=O)NOC(C)(C)C)c(Nc3ccc(I)cc3Cl)c(F)c2F)c1F")
23
>>> reported_result("CCCNS(=O)(=O)Nc1nccc(Cc2cc(C(=O)NOCCO)c(Nc3ccc(I)cc3F)c(F)c2F)c1F")
6
>>> reported_result("NC(=O)c1cc(Cc2ccnc(NS(=O)(=O)NCC3COC3)c2F)c(F)c(F)c1Nc1ccc(I)cc1F")
4
>>> reported_result("CCS(=O)(=O)Nc1nccc(Cn2cc(C(=O)NC3CC3)c(Nc3ccc(I)cc3F)c(C)c2=O)c1F")
16
>>> reported_result("CCS(=O)(=O)Nc1cccc(Cc2cc(C(N)=O)c(Nc3ccc(I)cc3F)n(C)c2=O)c1F")
8
>>> reported_result("CNS(=O)(=O)Nc1nccc(Cc2cc(C(=O)NOC)c(Nc3ccc(I)cc3F)c(F)c2F)c1F")
3
>>> reported_result("CCS(=O)(=O)Nc1nccc(Cc2cc(C(=O)NC3CC3)c(Nc3ccc(C4CC4)cc3F)c(F)c2F)c1F")
46

----------
SYSTEM: BRAF (Homo sapiens, UniProt P15056)
Construct: purchased Eurofins Genomics KK; (BRAF); Thermo Fisher Scientific Inc. (MEK1)
METHOD SUMMARY: BRAF-inhibiting activity, time-resolved fluorescence-fluorescence resonance energy transfer assay
Type: biochemical
ASSAY CONTEXT: read-out: BRAF IC50; Table 3
IC50 for assorted compounds
TEST READOUT: IC50 (nM)

>>> reported_result("Cn1c(Nc2ccc(I)cc2F)c(C(=O)NC2CC2)cc(Cc2cccc(NS(=O)(=O)C3(C)CC3)c2F)c1=O [Compound K-11]")
15
>>> reported_result("NC(=O)c1cc(Cc2ccnc(NS(=O)(=O)NCCF)c2F)c(F)c(F)c1Nc1ccc(I)cc1F [Compound A-42]")
6
>>> reported_result("NC(=O)c1cc(Cc2ccnc(NS(=O)(=O)NC34CC(C3)C4)c2F)c(F)c(F)c1Nc1ccc(I)cc1F [Compound A-28]")
9
>>> reported_result("COCCNS(=O)(=O)Nc1nccc(Cc2cc(C(=O)NOC(C)C)c(Nc3ccc(I)cc3F)c(F)c2F)c1F [Compound A-11]")
9

----------
METHOD SUMMARY: Human liver microsome stability
Format: in vitro ADME
ASSAY CONTEXT: human liver microsomes, pH 7.4
Entries get a class label from measured microsomal CLint at 0.99 µM. See ranges: L: < 20 µL/min/mg; M: ≥ 20 µL/min/mg and < 40 µL/min/mg; H: ≥ 40 µL/min/mg

>>> category("CCS(=O)(=O)Nc1cccc(Cc2cc(C(=O)NOC(C)(C)C)c(Nc3ccc(I)cc3F)c(F)c2F)c1F")
"H"
>>> category("CNS(=O)(=O)Nc1nccc(Cc2c(C)c3ccc(Oc4ncccn4)cc3oc2=O)c1F [Ref-5, reference compound]")
"L"
>>> category("Cn1c(Nc2ccc(I)cc2F)c(C(=O)NC2CC2)cc(Cc2ccnc(NS(=O)(=O)NC3CC3)c2F)c1=O")
"H"
>>> category("CC(C)(C)ONC(=O)c1cc(Cc2ccnc(NS(=O)(=O)NC3CC3)c2F)c(F)c(F)c1Nc1ccc(I)cc1Cl")
"H"
>>> category("CNS(=O)(=O)Nc1nccc(Cc2cc(C(=O)NOCCO)c(Nc3ccc(I)cc3F)c(F)c2F)c1F")
"L"
>>> category("CCS(=O)(=O)Nc1cc(Cc2cc(C(N)=O)c(Nc3ccc(I)cc3F)n(C)c2=O)ccn1")
"L"
>>> category("CNS(=O)(=O)Nc1nccc(Cc2cc(C(N)=O)c(Nc3ccc(I)cc3F)cn2)c1F")
"L"
>>> category("COCCNS(=O)(=O)Nc1nccc(Cc2cc(C(=O)NC3CC3)c(Nc3ccc(I)cc3F)n(C)c2=O)c1F")
"M"
>>> category("Cn1c(Nc2ccc(I)cc2F)c(C(N)=O)cc(Cc2cccc(NS(=O)(=O)NC3CC3)c2F)c1=O")
"H"
>>> category("CNC(=O)c1cc(Cc2ccnc(NS(=O)(=O)NC)c2F)c(F)c(F)c1Nc1ccc(I)cc1F")
"M"
>>> category("CNS(=O)(=O)Nc1cccc(Cc2cc(C(=O)NOC)c(Nc3ccc(I)cc3F)c(F)c2F)c1F")
"M"
>>> category("COCCNS(=O)(=O)Nc1cccc(Cc2cc(C(N)=O)c(Nc3ccc(I)cc3F)c(F)c2F)c1F")
"M"
>>> category("Cn1c(Nc2ccc(I)cc2F)c(C(=O)NC2CC2)cc(Cc2cccc(NS(=O)(=O)NC3CC3)c2F)c1=O")
"H"
>>> category("CNS(=O)(=O)Nc1nccc(Cc2cc(C(=O)NC3CC3C)c(Nc3ccc(I)cc3F)c(F)c2F)c1F (mixture of isomers)")
"M"
>>> category("CNS(=O)(=O)Nc1nccc(Cc2cc(C(N)=O)c(Nc3ccc(C4CC4)cc3F)n(C)c2=O)c1F")
"M"
>>> category("COCCNS(=O)(=O)Nc1nccc(Cc2cc(C(N)=O)c(Nc3ccc(I)cc3F)cc2F)c1F")
"M"
>>> category("CNS(=O)(=O)Nc1cccc(Cc2cc(C(N)=O)c(Nc3ccc(I)cc3F)c(F)c2F)n1")
"M"
